# Target system: glutathione S-transferase (Schistosoma japonicum GST tag binding GSH beads)
# Assay comment: GST–glutathione bead interaction interference profiling – biochemical, multiplex beads, flow cytometry, profiling panel (AID 1769);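 further: target is a GST and green fluorescent protein fusion captured on glutathione beads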
# Particulars: flow cytometry fluorescence
pEC50: −log10 of the molar value.
Please enter label 1 where pEC50 is greater than or equal to 6, and label 0 where it is lower.

Consider the worked cases shown below.
CN(/N=C/C=C/c1ccccc1)C1=NS(=O)(=O)c2ccccc21    label 0
Nc1c(S(=O)(=O)c2cccs2)c2nc3ccccc3nc2n1/N=C/c1cccc(O)c1    label 1
O=C(CSc1ccc2nnc(-c3cccc(F)c3)n2n1)N1CCCc2ccccc21    label 1

Task: Identify whether the reported pEC50 of the following compound is 6 or greater: "O=c1c2ccc([N+](=O)[O-])cc2ncn1Cc1ccccc1C(F)(F)F"
Result: label 0

Task: Let us now turn to "COc1cc(/C=N/Nc2ncnc3sc4c(c23)CCC4)ccc1O"
Result: label 0

---

# Target system: glutathione S-transferase (Schistosoma japonicum GST tag binding GSH beads)
# Assay comment: GST–glutathione bead interaction interference profiling – biochemical, multiplex beads, flow cytometry, profiling panel (AID 1769);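 further: target is a GST and green fluorescent protein fusion captured on glutathione beads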
# Particulars: flow cytometry fluorescence
Readout: EC50

# example entries with known answers
Cc1cccc(S(=O)(=O)c2c(N)n(/N=C/c3cccnc3)c3nc4ccccc4nc23)c1    3.42 µM
N#CCc1c(C#N)c(N)nc(N2CCN(C=O)CC2)c1C#N    15.7 µM
COc1ccc2nc(C)cc(SCC(=O)N/N=C/c3ccc(O)c(O)c3)c2c1    15.7 µM

Task: For the compound "COc1ccc(OC)c(Nc2nc(-c3sc(N)nc3C)cs2)c1" , what EC50 is on record?
Result: 26.9 µM

Task: What do we get for "O=c1c2ccccc2nc2ccc(NCc3ccco3)nn12" ?
Result: 50.8 µM

Task: Now try "Cc1nc(N/N=C/c2ccc(O)cc2)c2cnn(-c3ccccc3)c2n1" .
Result: 3.58 µM

Task: Similarly, "CCOc1cccc(Nc2cc3n(c(=O)n2)CCc2cc(OC)c(OC)cc2-3)c1" ?
Result: 64.5 µM

Task: // query: "COc1ccc(/C=C(/C#N)C(=O)Nc2ccc(O)cc2)cc1C(=O)O"
Result: 16.4 µM

Task: Same thing, different compound: "Cc1ccc(NC(=O)Nc2ccnc(-c3cccnc3)n2)cc1"
Result: 2.07 µM

Task: Again, but for "COc1ccc(N=C2S/C(=C\c3ccc(N4CCOCC4)o3)C(=O)N2CCc2c[nH]c3ccccc23)cc1"
Result: 0.0269 µM

---

# Target system: glutathione S-transferase (Schistosoma japonicum GST tag binding GSH beads)
# Assay comment: GST–glutathione bead interaction interference profiling – biochemical, multiplex beads, flow cytometry, profiling panel (AID 1769);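 further: target is a GST and green fluorescent protein fusion captured on glutathione beads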
# Particulars: flow cytometry fluorescence
Readout: EC50

// below: answered compounds
COc1cc2c(cc1OC)-c1cc(NCc3ccccn3)nc(=O)n1CC2    1960 nM
Oc1ccc2ccccc2c1/C=N/Nc1nnc(-c2ncc[nH]2)c2ccccc12    1960 nM
CC(C)NC(=S)N=Nc1c(O)[nH]c2ccc([N+](=O)[O-])cc12    1430 nM
COc1cc2[nH]c(=S)nc(NCCc3ccc(C)cc3)c2cc1OC    334 nM
NC1=NC(=O)/C(=C/c2cn(CCC(=O)O)nc2-c2ccc(Cl)cc2)S1    29200 nM

Task: // map "O=c1c2ccccc2nc2ccc(NCc3cccs3)nn12" to recorded EC50 (system: glutathione S-transferase (Schistosoma japonicum GST tag binding GSH beads))
Result: 6790 nM

Reference for the values: PubChem BioAssay AID1769
